All values here come from paper PMC5540273.

# %Inh per record follows
- Tested on: JNK3;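 note: KINOMEscan kinase panel screen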
- Construct: gene MAPK10
- condition context: concentration: 1 μM, replicates: in singlicate; n = 1
Give the value in % but do not write % after it.

CS(=O)(=O)CCNCc1nc(-c2ccc3ncnc(Nc4ccc(OCc5cccc(F)c5)c(Cl)c4)c3c2)cs1.Cl = 0
Clc1cccc(-c2nc(Nc3ccncc3)c3ccccc3n2)c1 = 0
OCCOCCn1ccc2ncnc(Nc3ccc(Oc4cccc(Cl)c4)c(Cl)c3)c21 = 0
COc1ccc(-c2oc3ncnc(N)c3c2-c2ccc(OC)cc2)cc1 = 0
CNc1nccc(-c2c(-c3ccc(F)cc3)ncn2CCCN2CCOCC2)n1 = 0
C[C@H]1CC[C@@H](C(=O)Nc2ccccc2)CN1c1cc(-c2ccc3c(N)n[nH]c3c2)nc(N)n1 = 1
O=C(Nc1ccccc1F)NC1CCN(c2ccnc(Nc3ccc(F)cc3)n2)C1 (stereo not drawn) = 23
Cl.c1ccc(Cn2ncc3cc(Nc4ncnc5ccccc45)ccc32)cc1 = 0

Next compound, %Inh to be filled in.
Task item: # query: %Inh of entry Cl.O=S(=O)(c1cccc(F)c1)c1ccc(Nc2ncnc3cc(Br)sc23)cc1Cl
Reply: 4
